- Test system: C. parapsilosis MMX 2323 ATCC 22019
- Method summary: MIC assay (CLSI microdilution)
- Format: cell-based, Candida parapsilosis
- Test context: ATCC22019, Without Tween-80; read-out: MIC
Numbered stars: 1 amine (or outer) side, 2 acyl side, 3 side chain; on linkers, the order of the positions; unused ones are H or OH. Square brackets hold non-standard residues; d marks the D form. Peptide text beside a SMILES is read from it. X15 = CN([C@@H](Cc1cccc(-c2ccc(N3CCOCC3)nc2)c1)C(=O)[*:2])[*:1]; X17 = CN([C@@H](Cc1cccc(-c2cnc3ccccc3c2)c1)C(=O)[*:2])[*:1]; Hmp(2R,3S) = CC[C@H](C)[C@@H](O)C(=O)O; NMeVal(β-OH) = CN[C@H](C(=O)O)C(C)(C)O; NMeV = CN[C@H](C(=O)O)C(C)C
Record form. Attribute: MIC. Fill in for each entry.
One number for each entry, in µg/mL.

State, in one line, measured MIC of CC[C@H](C)[C@@H]1NC(=O)[C@@H]2CCCN2C(=O)[C@H](Cc2cccc(-c3ccc(N4CCOCC4)nc3)c2)N(C)C(=O)[C@H](Cc2ccccc2)NC(=O)[C@H](C(C)C)N(C)C(=O)[C@@H]([C@@H](C)CC)OC(=O)[C@H](C(C)(C)O)N(C)C(=O)[C@H](CC(C)C)NC(=O)[C@H](C(C)C)N(C)C1=O [Compound 24] (cyclo(F[X15]PI[NMeV]L[NMeVal(β-OH)][Hmp(2R,3S)][NMeV])) 1

Alright, here's another molecule for you.
State, in one line, measured MIC of CC[C@H](C)[C@@H]1NC(=O)[C@@H]2CCCN2C(=O)[C@H](Cc2cccc(-c3cnc4ccccc4c3)c2)N(C)C(=O)[C@H](Cc2ccccc2)NC(=O)[C@H](C(C)C)N(C)C(=O)[C@@H]([C@@H](C)CC)OC(=O)[C@H](C(C)(C)O)N(C)C(=O)[C@H](CC(C)C)NC(=O)[C@H](C(C)C)N(C)C1=O [Compound 27] (cyclo(F[X17]PI[NMeV]L[NMeVal(β-OH)][Hmp(2R,3S)][NMeV])) 1
